biological target: Replicase polyprotein 1ab (Severe acute respiratory syndrome coronavirus 2, UniProt P0DTD1); assay: Inhibition of recombinant SARS-CoV-2 Delta 3CL protease using Dabcyl-KTSAVLQSGFRKME-Edans as substrate preincubated for 30 mins followed by substrate addition and measured for 1 hr by fluorescence based microplate reader analysis
We begin with a simple list: items and their reported pIC50.
The meaning of pIC50 here: minus log10 of the concentration in molar units.

{"columns": ["smiles.str", "pIC50"],
 "data": [
  ["CCCCCCCCCCCCNC(=O)[C@@H](Cc1ccc(O)c(O)c1)OC(=O)/C=C/c1ccc(O)c(O)c1", 4.39]
]}

IN: # pIC50 lookup, item CCc1cccc(NC(=O)[C@@H](Cc2ccc(O)c(O)c2)OC(=O)/C=C/c2ccc(O)c(O)c2)c1
OUT: 4.34
